- Test system: SUDHL10
- ASSAY_REMARKS: Induction of caspase-3/7 activity (Caspase-Glo 3/7), SUDHL10
- Type: cell-based
- PARTICULARS: Homo sapiens, SU-DHL10, 3 h, caspase-3/7 induction, SUDHL10 cells, 3 h treatment; median
MEASURED_QUANTITY: EC50 (µM)

Cc1ccc2c(C(C)CCOc3cccc4c3CCCC4)c(C(=O)O)n3c2c1-c1c(nn(C)c1C)COCCCC3 (racemic) [Example 363] ... 23.1

1: Cc1c2c(nn1C)CCCCCCn1c(C(=O)O)c(CCCOc3cccc4ccccc34)c3cccc-2c31 (racemic) [Example 190]
2: CCN(CC)S(=O)(=O)N1CCN(c2ccc(OCc3nn(C)c4c3-c3cccc5c(CCCOc6cccc7ccccc67)c(C(=O)O)n(c35)CCCCOC4)cc2)CC1 (racemic) [Example 1-3]
Ask | Of 1 versus 2 , which is the one with smaller reported EC50? Answer format: the label of the selected item.
Reply | 2

* * *

- Test system: MV-4-11
- ASSAY_REMARKS: Anti-proliferative effect (CellTiter-Glo, 72 h), MV-4-11
- Assay type: cell-based
- PARTICULARS: MV-4-11 cells, median, read-out: IC50 antiproliferation assay MV-4-11 [M] (median)
MEASURED_QUANTITY: IC50 (M)

# annotated cases, reported IC50 shown
Cc1ccc2c(C(C)CCOc3cccc4cc(F)ccc34)c(C(=O)O)n3c2c1-c1c(nn(C)c1C)COCCCC3 (single isomer, unassigned) [Example 280] ... 1.11e-05
Cc1c2c(nn1C)COCCCCn1c(C(=O)O)c(CCCOc3cccc4cc(C(F)(F)F)ccc34)c3cccc-2c31 (single isomer, unassigned; enantiomer 2) ... 1.28e-05

P: CCc1c2c(nn1C)COCCCCn1c(C(=O)O)c(CCCOc3cccc4cc(F)ccc34)c3cccc-2c31 (single isomer, unassigned) [Example 283]
Q: Cc1nn(C)c2c1-c1cccc3c(CCCOc4cccc5ccccc45)c(C(=O)O)n(c13)CCCCOC2 (single isomer, unassigned; enantiomer 2)
R: Cc1c2c(nn1C)CN(C)CCCn1c(C(=O)O)c(CCCOc3cccc4ccccc34)c3cccc-2c31 (single isomer, unassigned; enantiomer 1) [Example 1-34]
Ask | Order each entry by recorded IC50, climbing from the minimum. In plain terms: list the labels in the order you were asked to.
Reply | R, P, Q

* * *

- STUDY_TARGET: MCL-1 (Homo sapiens)
- Sequence (Q07820 whole entry): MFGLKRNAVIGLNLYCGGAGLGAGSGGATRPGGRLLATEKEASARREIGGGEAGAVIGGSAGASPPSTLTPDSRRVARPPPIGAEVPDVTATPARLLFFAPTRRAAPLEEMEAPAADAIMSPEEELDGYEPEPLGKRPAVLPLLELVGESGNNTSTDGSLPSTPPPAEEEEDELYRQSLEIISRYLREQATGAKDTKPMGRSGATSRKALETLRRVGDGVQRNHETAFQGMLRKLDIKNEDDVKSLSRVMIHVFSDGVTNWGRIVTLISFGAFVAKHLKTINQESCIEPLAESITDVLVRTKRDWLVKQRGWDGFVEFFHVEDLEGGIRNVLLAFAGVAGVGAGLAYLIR
- ASSAY_REMARKS: Protein-protein interaction assay MCL-1/Noxa BH3 peptide (MCL-1 assay), TR-FRET
- Type: binding
- PARTICULARS: MBP-MCL-1 / Noxa BH3-derived peptide, median
MEASURED_QUANTITY: IC50 (nM)

# annotated cases, reported IC50 shown
COCCn1nc2c(c1CN1CCOCC1)-c1cccc3c(CCCOc4cccc5ccccc45)c(C(=O)O)n(c13)CCCN(C)C2 (single isomer, unassigned; enantiomer 2) [Example 058] ... 116
Cn1nc(CN2CCOCC2)c2c1COCC=CCn1c(C(=O)O)c(CCCOc3cccc4ccccc34)c3cccc-2c31 (racemic) [Example 132] ... 33.5
CCc1nn(C)c2c1-c1cccc3c(CCCOc4cccc5c(F)cccc45)c(C(=O)O)n(c13)CCCCOC2 (single isomer, unassigned) [Example 299] ... 166

1: Cc1nn(C)c2c1-c1cccc3c(CCCOc4cccc5cc(F)ccc45)c(C(=O)O)n(c13)CCCCOC2 (single isomer, unassigned; enantiomer 1) [Example 019]
2: CN1CCCn2c(C(=O)O)c(CCCOc3cccc4ccccc34)c3cccc(c32)-c2c(nn3c2OCCC3)C1 (racemic)
Ask | Which entry has a larger number for IC50, 1 or 2 ? Answer format: the label of the selected item.
Reply | 2
(2: 19.8 nM, 1: 0.862 nM)

I: CC(=O)NCc1nn(C)c2c1-c1cccc3c(CCCOc4cccc5ccccc45)c(C(=O)O)n(c13)CCCCOC2 (single isomer, unassigned; enantiomer 2) [Example 341]
II: COCc1nn(C)c2c1-c1cccc3c(CCCOc4cccc5ccccc45)c(C(=O)O)n(c13)CCCCN(C)C2 (racemic) [Example 183]
III: Cn1nc(COc2ccc(N3CCN(CC(=O)O)CC3)cc2)c2c1COCCCCn1c(C(=O)O)c(CCCOc3cccc4ccccc34)c3cccc-2c31 (racemic)
Ask | Order each entry by recorded IC50, climbing from the minimum. In plain terms: list the labels in the order you were asked to.
Reply | II, III, I

1: Cc1ccc2c(CCCOc3cccc4ccccc34)c(C(=O)O)n3c2c1-c1c(nn(C)c1C)COCCCC3 (single isomer, unassigned; enantiomer 1) [Example 076]
2: Cc1nn(C)c2c1-c1cccc3c(CCCOc4cccc5ccccc45)c(C(=O)O)n(c13)CCCN(c1ccc(N3CCOCC3)cc1)C2 (single isomer, unassigned; enantiomer 2) [Example 1-100]
Ask | Of 1 versus 2 , which is the one with smaller reported IC50? Answer format: the label of the selected item.
Reply | 1
